Reported GI50 values follow for various compounds
Tested on: DU-145 prostate
EXPERIMENT_NOTES: NCI tumour cell line growth inhibition, 48 h
MEASURED_PARAMETER: GI50

INSERT INTO results (compound, measured_parameter, value_measured) VALUES
  ('CCOC(=O)c1c(-c2ccccc2)[n+](=O)c2cc(Cl)c(Cl)cc2n1[O-]', 'GI50', '9.4 µM'),
  ('CC(C)(C)c1cc(C(=O)Nc2ccccc2C(=O)NCCN)cc(C(C)(C)C)c1', 'GI50', '1.84 µM'),
  ('COc1cccc(/C=C/C(=O)c2ccc3cc(OC)ccc3c2)c1', 'GI50', '8.54 µM'),
  ('O=C1NC(=NCCc2ccc(F)cc2)S/C1=C\c1ccc2ncccc2c1', 'GI50', '> 25 µM'),
  ('CC(C)=CCc1cc2c(cc1O)C1=C(C(=O)C3=C(C1=O)S(=O)(=O)CCN3)C(C=C(C)C)O2 (stereo not drawn)', 'GI50', '0.309 µM'),
  ('CCOC(=O)CSc1cc(Cl)c(C)cc1S(=O)(=O)/N=C(/N=C/c1ccc([N+](=O)[O-])s1)NNC', 'GI50', '7.45 µM'),
  ('COC1(CC[C@@H](C)COC2OC(CO)C(O)C(O)C2O)O[C@H]2C[C@H]3[C@@H]4CC=C5C[C@@H](OC6OC(CO)C(OC7OC(C)C(O)C(O)C7O)C(O)C6OC6OC(C)C(O)C(O)C6O)CC[C@]5(C)[C@H]4CC[C@]3(C)[C@H]2[C@@H]1C (stereo partly drawn)', 'GI50', '1.92 µM'),
  ('CC1CC2C3CCC4=CC(=O)C=CC4(C)C3(F)C(O)CC2(C)C1(O)C(=O)COP(=O)(O)O (stereo not drawn)', 'GI50', '> 500 µM');
